Numbers sourced from ChEMBL document CHEMBL1134493.

System: Escherichia coli
Assay: In vitro antibacterial activity against Escherichia coli
Type: functional

{"SMI": "O=C(CN1Cc2c(F)cccc2NC1=O)NO", "MEASURE UNIT": "µg/mL", "BOUND TYPE": ">", "MIC": 64}
{"SMI": "O=C(CN1Cc2c(Br)cccc2N(CC2CC2)S1(=O)=O)NO", "MEASURE UNIT": "µg/mL", "BOUND TYPE": "=", "MIC": 64}
{"SMI": "O=C(CN1Cc2c(Cl)cccc2N(CC2CC2)S1(=O)=O)NO", "MEASURE UNIT": "µg/mL", "BOUND TYPE": ">", "MIC": 64}
{"SMI": "O=C(CN1Cc2c(F)cccc2NS1(=O)=O)NO", "MEASURE UNIT": "µg/mL", "BOUND TYPE": ">", "MIC": 64}
{"SMI": "O=C(CN1Cc2c(Cl)cccc2NC1=O)NO", "MEASURE UNIT": "µg/mL", "BOUND TYPE": "=", "MIC": 16}
{"SMI": "O=C(CN1Cc2c(Br)cccc2NS1(=O)=O)NO", "MEASURE UNIT": "µg/mL", "BOUND TYPE": "=", "MIC": 32}
{"SMI": "NNC(=O)CN1Cc2c(Cl)cccc2NC1=O", "MEASURE UNIT": "µg/mL", "BOUND TYPE": "=", "MIC": 50}
{"SMI": "O=C(CN1Cc2c(cccc2C(F)(F)F)NC1=O)NO", "MEASURE UNIT": "µg/mL", "BOUND TYPE": "=", "MIC": 64}
{"SMI": "O=C(CN1Cc2c(Cl)cccc2N(Cc2ccccc2)S1(=O)=O)NO", "MEASURE UNIT": "µg/mL", "BOUND TYPE": "=", "MIC": 64}

###

Target: UniProtKB P08473
Sequence (P08473 whole entry): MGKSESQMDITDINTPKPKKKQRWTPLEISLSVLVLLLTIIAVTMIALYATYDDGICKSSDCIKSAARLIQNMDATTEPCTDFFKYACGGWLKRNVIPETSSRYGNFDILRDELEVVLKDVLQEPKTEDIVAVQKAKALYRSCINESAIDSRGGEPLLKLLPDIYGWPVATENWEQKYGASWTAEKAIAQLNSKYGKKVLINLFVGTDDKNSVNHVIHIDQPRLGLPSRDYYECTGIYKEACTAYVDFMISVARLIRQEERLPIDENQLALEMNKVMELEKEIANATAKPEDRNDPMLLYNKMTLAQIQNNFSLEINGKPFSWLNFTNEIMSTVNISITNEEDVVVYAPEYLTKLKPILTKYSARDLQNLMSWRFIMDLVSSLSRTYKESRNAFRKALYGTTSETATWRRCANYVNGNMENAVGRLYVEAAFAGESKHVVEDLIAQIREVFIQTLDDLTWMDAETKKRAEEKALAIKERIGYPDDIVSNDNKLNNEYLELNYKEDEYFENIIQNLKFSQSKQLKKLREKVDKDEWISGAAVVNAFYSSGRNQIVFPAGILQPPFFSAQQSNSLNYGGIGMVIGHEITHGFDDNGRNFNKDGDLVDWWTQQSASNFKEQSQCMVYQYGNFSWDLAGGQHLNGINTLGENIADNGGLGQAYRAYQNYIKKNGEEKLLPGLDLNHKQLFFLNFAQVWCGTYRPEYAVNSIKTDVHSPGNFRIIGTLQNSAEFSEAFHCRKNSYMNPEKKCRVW
Experiment: Inhibition against neutral endopeptidase
# IC50 per record follows

{"SMI": "O=C(CN1Cc2c(Cl)cccc2NS1(=O)=O)NO", "IC50": "> 100 µM"}
{"SMI": "O=C(CN1Cc2c(Cl)cccc2NC1=O)NO", "IC50": "> 100 µM"}

###

// values below are IC50; system is Collagenase 3 (Homo sapiens)

{"SMI": "O=C(CN1Cc2c(Cl)cccc2NC1=O)NO", "BOUND TYPE": "=", "IC50 (nM)": 460}
{"SMI": "O=C(CN1Cc2c(Cl)cccc2NS1(=O)=O)NO", "BOUND TYPE": ">", "IC50 (nM)": 500}

###

Molecular target: Peptide deformylase (Escherichia coli)
Assay: Inhibition of the isolated native Escherichia coli peptide deformylase (PDF)
pIC50: −log10 of the molar value.

{"SMI": "O=C(CN1Cc2c(F)cccc2NS1(=O)=O)NO", "TARGET OR SYSTEM": "Peptide deformylase (Escherichia coli)", "pIC50": 6.06}
{"SMI": "O=C(CN1Cc2c(cccc2C(F)(F)F)NS1(=O)=O)NO", "TARGET OR SYSTEM": "Peptide deformylase (Escherichia coli)", "pIC50": 6.89}
{"SMI": "O=C(CN1Cc2c(Br)cccc2NC1=O)NO", "TARGET OR SYSTEM": "Peptide deformylase (Escherichia coli)", "pIC50": 7.31}
{"SMI": "O=C(CN1Cc2c(Cl)cccc2N(CC2CC2)S1(=O)=O)NO", "TARGET OR SYSTEM": "Peptide deformylase (Escherichia coli)", "pIC50": 6.96}
{"SMI": "CCCCN1c2cccc(Cl)c2CN(CC(=O)NO)S1(=O)=O", "TARGET OR SYSTEM": "Peptide deformylase (Escherichia coli)", "pIC50": 6.23}
{"SMI": "NNC(=O)CN1Cc2c(Cl)cccc2NC1=O", "TARGET OR SYSTEM": "Peptide deformylase (Escherichia coli)", "pIC50": 4.57}
{"SMI": "O=C(CN1Cc2c(cccc2C(F)(F)F)NC1=O)NO", "TARGET OR SYSTEM": "Peptide deformylase (Escherichia coli)", "pIC50": 6.64}

###

Target protein (sequence): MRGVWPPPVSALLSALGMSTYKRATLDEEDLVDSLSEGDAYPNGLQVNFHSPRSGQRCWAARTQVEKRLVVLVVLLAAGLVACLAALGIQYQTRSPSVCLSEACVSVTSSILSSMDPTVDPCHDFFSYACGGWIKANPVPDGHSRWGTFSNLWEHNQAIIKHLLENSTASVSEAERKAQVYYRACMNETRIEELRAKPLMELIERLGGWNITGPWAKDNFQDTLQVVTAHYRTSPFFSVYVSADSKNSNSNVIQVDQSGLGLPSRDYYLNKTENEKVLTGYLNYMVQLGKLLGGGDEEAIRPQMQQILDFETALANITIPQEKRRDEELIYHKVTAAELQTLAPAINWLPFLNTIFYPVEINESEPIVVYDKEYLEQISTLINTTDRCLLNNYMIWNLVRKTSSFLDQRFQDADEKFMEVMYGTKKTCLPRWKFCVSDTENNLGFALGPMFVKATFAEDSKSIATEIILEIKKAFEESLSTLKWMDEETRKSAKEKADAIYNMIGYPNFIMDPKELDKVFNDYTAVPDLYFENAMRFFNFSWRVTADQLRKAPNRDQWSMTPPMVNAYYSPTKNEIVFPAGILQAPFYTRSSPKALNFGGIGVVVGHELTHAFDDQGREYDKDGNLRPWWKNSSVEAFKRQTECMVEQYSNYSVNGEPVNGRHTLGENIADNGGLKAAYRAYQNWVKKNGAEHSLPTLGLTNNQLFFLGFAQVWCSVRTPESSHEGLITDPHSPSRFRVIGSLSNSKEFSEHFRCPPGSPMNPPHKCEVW
QUANTITY: IC50

{"SMI": "O=C(CN1Cc2c(Cl)cccc2NS1(=O)=O)NO", "ENDPOINT VALUE": "> 10 µM"}
{"SMI": "O=C(CN1Cc2c(Cl)cccc2NC1=O)NO", "ENDPOINT VALUE": "> 10 µM"}

###

// values below are IC50; system is UniProtKB P12821
Sequence (P12821 whole entry): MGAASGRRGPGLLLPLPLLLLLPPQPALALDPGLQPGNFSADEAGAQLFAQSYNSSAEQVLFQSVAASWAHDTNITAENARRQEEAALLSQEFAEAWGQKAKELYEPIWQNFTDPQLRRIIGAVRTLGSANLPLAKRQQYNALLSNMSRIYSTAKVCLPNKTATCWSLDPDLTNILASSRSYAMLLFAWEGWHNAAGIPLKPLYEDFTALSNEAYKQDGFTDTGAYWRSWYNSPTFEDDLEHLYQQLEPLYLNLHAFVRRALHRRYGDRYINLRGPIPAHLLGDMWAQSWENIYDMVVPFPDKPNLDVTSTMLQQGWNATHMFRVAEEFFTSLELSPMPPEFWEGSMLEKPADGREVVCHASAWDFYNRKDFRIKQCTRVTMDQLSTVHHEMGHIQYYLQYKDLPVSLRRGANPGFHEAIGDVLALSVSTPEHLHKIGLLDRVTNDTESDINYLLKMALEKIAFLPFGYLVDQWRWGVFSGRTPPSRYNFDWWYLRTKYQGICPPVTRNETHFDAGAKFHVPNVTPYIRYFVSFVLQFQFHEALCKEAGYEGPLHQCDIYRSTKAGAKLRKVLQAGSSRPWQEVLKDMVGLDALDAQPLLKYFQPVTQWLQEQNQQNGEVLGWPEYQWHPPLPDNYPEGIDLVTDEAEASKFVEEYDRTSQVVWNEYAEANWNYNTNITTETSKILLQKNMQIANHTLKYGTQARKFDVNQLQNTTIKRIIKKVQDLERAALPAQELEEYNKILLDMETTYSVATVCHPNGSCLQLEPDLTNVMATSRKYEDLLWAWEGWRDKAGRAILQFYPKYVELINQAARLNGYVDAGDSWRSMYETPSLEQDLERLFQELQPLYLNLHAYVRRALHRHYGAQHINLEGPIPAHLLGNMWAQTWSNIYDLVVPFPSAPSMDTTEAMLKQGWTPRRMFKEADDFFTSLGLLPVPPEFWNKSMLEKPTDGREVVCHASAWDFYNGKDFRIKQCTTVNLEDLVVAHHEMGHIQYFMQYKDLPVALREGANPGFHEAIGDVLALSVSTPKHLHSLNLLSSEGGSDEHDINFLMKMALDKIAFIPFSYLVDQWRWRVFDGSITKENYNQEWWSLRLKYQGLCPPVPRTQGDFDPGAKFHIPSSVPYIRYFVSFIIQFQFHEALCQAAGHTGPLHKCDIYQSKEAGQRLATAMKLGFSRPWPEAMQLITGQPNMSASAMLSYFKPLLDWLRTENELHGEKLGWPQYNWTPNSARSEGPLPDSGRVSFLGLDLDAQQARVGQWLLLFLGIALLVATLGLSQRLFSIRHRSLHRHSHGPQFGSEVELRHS

{"SMI": "O=C(CN1Cc2c(Cl)cccc2NC1=O)NO", "TARGET OR SYSTEM": "UniProtKB P12821", "MEASURE UNIT": "µM", "BOUND TYPE": "=", "IC50": 90}
{"SMI": "O=C(CN1Cc2c(Cl)cccc2NS1(=O)=O)NO", "TARGET OR SYSTEM": "UniProtKB P12821", "MEASURE UNIT": "µM", "BOUND TYPE": ">", "IC50": 100}

###

Molecular target: Peptide deformylase (Escherichia coli, UniProt Q9JN24)
Sequence (Q9JN24 whole entry): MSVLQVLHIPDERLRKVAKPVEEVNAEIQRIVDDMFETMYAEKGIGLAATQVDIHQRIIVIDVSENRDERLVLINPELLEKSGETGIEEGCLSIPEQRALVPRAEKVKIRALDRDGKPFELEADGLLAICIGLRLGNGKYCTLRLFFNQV
Test: Inhibition of the isolated native Escherichia coli peptide deformylase (PDF)
Binary label based on IC50 with cut-off 0.8 µM: below gives true (1), not below gives false (0).

{"SMI": "O=C(CN1Cc2c(F)cccc2NC1=O)NO", "TARGET OR SYSTEM": "Peptide deformylase (Escherichia coli, UniProt Q9JN24)", "ASSIGNED LABEL": "false (0)"}
{"SMI": "O=C(CN1Cc2c(Cl)cccc2NC1=O)NO", "TARGET OR SYSTEM": "Peptide deformylase (Escherichia coli, UniProt Q9JN24)", "ASSIGNED LABEL": "true (1)"}
{"SMI": "O=C(CN1Cc2c(Br)cccc2NS1(=O)=O)NO", "TARGET OR SYSTEM": "Peptide deformylase (Escherichia coli, UniProt Q9JN24)", "ASSIGNED LABEL": "true (1)"}
{"SMI": "O=C(CN1Cc2c(Cl)cccc2NS1(=O)=O)NO", "TARGET OR SYSTEM": "Peptide deformylase (Escherichia coli, UniProt Q9JN24)", "ASSIGNED LABEL": "true (1)"}
{"SMI": "O=C(CN1Cc2ccccc2NS1(=O)=O)NO", "TARGET OR SYSTEM": "Peptide deformylase (Escherichia coli, UniProt Q9JN24)", "ASSIGNED LABEL": "true (1)"}
